src = patent US11021506B2

Form field: Reducing capacity (ORP) (one value per entry).
Test: Oxidation-reduction potential (ORP) measurement
Assay type: physicochemical
Details: ORP probe; solutions (1 mM)
Method: An INLAB® Redox Micro ORP probe (Mettler Toledo) was employed, which utilizes a small platinum ring indicator electrode and a 3M KCL reference electrolyte. ORP values were determined for thiosaccharides, NAC and glutathione.
Numeric answer only, unit mV assumed.

In the examples that follow, each entry is paired with its recorded Reducing capacity (ORP).
CO[C@H]1O[C@H](CO)[C@H](O)[C@H](O)[C@H]1O [MDG, methyl α-D-galactopyranoside, reference compound] | 176
CO[C@H]1OC(CS)[C@H](O)C(O)C1O (some centres unmarked) | 99
OCC1O[C@@H](OCCCCCS)C(O)[C@@H](O)[C@H]1O (stereo partly drawn) [Cmpd 2, 5-Thiolpentyl β-D-galactopyranoside] | −15
N[C@@H](CCC(=O)N[C@@H](CS)C(=O)NCC(=O)O)C(=O)O | 140

What does the data say about its Reducing capacity (ORP)? Entry: CC(=O)N[C@@H](CS)C(=O)O [NAC, N-Acetylcysteine, reference compound] 121
